Value source: patent US10905665B2

system: Wnt/β-catenin transcription; assay: Wnt-3A-stimulated TOPFlash reporter assay in HEK293 cells; type: cell-based; settings: Homo sapiens, HEK293, 8 h
READOUT TYPE: inhibition at 2 µM (%)

- COMPOUND: "O=C(Nc1ccc(Br)cc1)c1cc(Br)ccc1O [D, reference compound]"
  READOUT TYPE: "inhibition at 2 µM"
  MEASUREMENT UNITS: "%"
  OBSERVED RESULT: 60
- COMPOUND: "CCCCCCCC/C=C\\CCCCCCCC(=O)Oc1ccc(Cl)cc1C(=O)Nc1ccc([N+](=O)[O-])cc1Cl"
  READOUT TYPE: "inhibition at 2 µM"
  MEASUREMENT UNITS: "%"
  OBSERVED RESULT: 60
- COMPOUND: "O=C(Nc1ccc([N+](=O)[O-])cc1Cl)c1cc(-c2ccc(F)cc2F)ccc1O"
  READOUT TYPE: "inhibition at 2 µM"
  MEASUREMENT UNITS: "%"
  OBSERVED RESULT: 90
- COMPOUND: "C#CCOc1cc(N=[N+]=[N-])ccc1NC(=O)c1cc(Cl)ccc1O"
  READOUT TYPE: "inhibition at 2 µM"
  MEASUREMENT UNITS: "%"
  OBSERVED RESULT: 40
- COMPOUND: "CCCCC/C=C\\C/C=C\\CCCCCCCC(=O)Oc1ccc(Cl)cc1C(=O)Nc1ccc([N+](=O)[O-])cc1Cl"
  READOUT TYPE: "inhibition at 2 µM"
  MEASUREMENT UNITS: "%"
  OBSERVED RESULT: 85
